- System: NCI-H322M lung
- ASSAY PROCEDURE: NCI-60 one-dose screen, 48 h (100 = growth as untreated, 0 = no growth, -100 = all killed)
- PARTICULARS: 10 µM
Compounds without any hit were thinned out: in the full panel of roughly 83,000, 20% have a hit.
MEASUREMENT NAME: growth (%)
I only need the number, in %, no unit after it.

Example results:
CC(C)C[C@H](NC(=O)CNC(=O)C[C@H]1O[C@@H]2OC3(C)CC[C@H]4[C@H](C)CC[C@@H]([C@H]1C)[C@@]24OO3)B(O)O	51.6
O=C(NC([Se])=NC1CCCCC1)c1ccccc1	4.78
COCCOCCOCCOc1ccc(-n2cc(CCCN(CCNc3ccnc4cc(Cl)ccc34)C(=O)CCC(=O)O[C@@H]3O[C@@H]4OC5(C)CC[C@H]6[C@H](C)CC[C@@H]([C@H]3C)[C@@]46OO5)nn2)cc1	69.2

Now turn to the next molecule.
Prompt line: State its growth: CC12CCC3(CCC(=O)NCCCNc4ccnc5cc(Cl)ccc45)[C@@](C)(OO[C@]3(C)O1)O2
Response line: 27.5
